# Test system: LU99A
# assay_overview: relative viability (nuclei count vs DMSO), 5 days (fraction); higher = more cells survive
# applied_conditions: first compound 8 µM
Please note: relative viability exactly at 0.5 is N. Only values below 0.5 get Y.

O=c1[nH]c2ccccc2n1C1CCN(CCCC(c2ccc(F)cc2)c2ccc(F)cc2)CC1 [Pimozide] + CC(C)C[C@H](NC(=O)[C@H](Cc1ccccc1)NC(=O)c1cnccn1)B(O)O [Bortezomib] (partner 0.002 µM)    N
O=c1[nH]c2ccccc2n1C1CCN(CCCC(c2ccc(F)cc2)c2ccc(F)cc2)CC1 [Pimozide] + COc1cccc2cc(-c3nc([C@H]4CC[C@H](C(=O)O)CC4)n4ncnc(N)c34)[nH]c12 [OSI-027] (partner 0.5 µM)    Y
O=c1[nH]c2ccccc2n1C1CCN(CCCC(c2ccc(F)cc2)c2ccc(F)cc2)CC1 [Pimozide] + NC(=O)Nc1cc(-c2cccc(F)c2)sc1C(=O)N[C@H]1CCCNC1 [AZD7762] (partner 0.2 µM)    Y
O=c1[nH]c2ccccc2n1C1CCN(CCCC(c2ccc(F)cc2)c2ccc(F)cc2)CC1 [Pimozide] + CC(=O)c1c(C)c2cnc(Nc3ccc(N4CCNCC4)cn3)nc2n(C2CCCC2)c1=O [Palbociclib] (partner 0.5 µM)    Y

Attention now turns to another entry.
Task: Field: below-cutoff. Rule: recorded relative viability strictly less than 0.5. Subject: O=c1[nH]c2ccccc2n1C1CCN(CCCC(c2ccc(F)cc2)c2ccc(F)cc2)CC1 [Pimozide] + Cc1nc(Nc2ncc(C(=O)Nc3c(C)cccc3Cl)s2)cc(N2CCN(CCO)CC2)n1 [Dasatinib] (partner 0.075 µM)
Result: Y

---

# System: LU99A
# assay_overview: relative viability (nuclei count vs DMSO), 5 days (fraction); higher = more cells survive
# applied_conditions: first compound 158.11 µM
Sorting guide: entries reporting relative viability beneath 0.7 go in the Y pile, the rest go in the N pile.

O=C(O)CCCCC(CCSCc1ccccc1)SCc1ccccc1 (stereo unspecified) [CPI-613] + N=C(N)NC(=N)NCCc1ccccc1 [Phenformin] (partner 250 µM)    N
O=C(O)CCCCC(CCSCc1ccccc1)SCc1ccccc1 (stereo unspecified) [CPI-613] + Cc1nc(Nc2ncc(C(=O)Nc3c(C)cccc3Cl)s2)cc(N2CCN(CCO)CC2)n1 [Dasatinib] (partner 0.075 µM)    Y
O=C(O)CCCCC(CCSCc1ccccc1)SCc1ccccc1 (stereo unspecified) [CPI-613] + Nc1ncn([C@H]2C[C@H](O)[C@@H](CO)O2)c(=O)n1 [Decitabine] (partner 2 µM)    N
O=C(O)CCCCC(CCSCc1ccccc1)SCc1ccccc1 (stereo unspecified) [CPI-613] + CS(=O)(=O)N1CCN(Cc2cc3nc(-c4cccc5[nH]ncc45)nc(N4CCOCC4)c3s2)CC1 [Pictilisib] (partner 1 µM)    Y
O=C(O)CCCCC(CCSCc1ccccc1)SCc1ccccc1 (stereo unspecified) [CPI-613] + NC(=O)Nc1cc(-c2cccc(F)c2)sc1C(=O)N[C@H]1CCCNC1 [AZD7762] (partner 0.2 µM)    Y

Let's switch to this compound now.
Task: Criterion: relative viability strictly below 0.7. Is it met by O=C(O)CCCCC(CCSCc1ccccc1)SCc1ccccc1 (stereo unspecified) [CPI-613] + CC(C)C[C@H](NC(=O)[C@H](Cc1ccccc1)NC(=O)c1cnccn1)B(O)O [Bortezomib] (partner 0.002 µM) ?
Result: N

---

# System: NCI-H838
# assay_overview: relative viability (nuclei count vs DMSO), 5 days (fraction); higher = more cells survive
# applied_conditions: first compound 0.005 µM
Measured relative viability, listed per entry for reference.
Form rule: numeric answer, no unit written next to it.

Nc1ccn([C@@H]2O[C@H](CO)[C@@H](O)[C@@H]2O)c(=O)n1 [Cytarabine] + Cc1nc(NC(=O)N2CCC[C@H]2C(N)=O)sc1-c1ccnc(C(C)(C)C(F)(F)F)c1 [Alpelisib] (partner 2 µM)    0.886

// below: relative viability requested for another molecule
Kindly note the recorded relative viability for Nc1ccn([C@@H]2O[C@H](CO)[C@@H](O)[C@@H]2O)c(=O)n1 [Cytarabine] + C[C@@H](Oc1cc(-c2cnn(C3CCNCC3)c2)cnc1N)c1c(Cl)ccc(F)c1Cl [Crizotinib] (partner 1 µM) , which is 0.715

---

# System: NCI-H3122
# assay_overview: relative viability (nuclei count vs DMSO), 5 days (fraction); higher = more cells survive
# applied_conditions: first compound 0.0002 µM
observed_property: relative viability

CC(=O)O[C@@]12CO[C@@H]1C[C@H](O)[C@@]1(C)C(=O)[C@H](O)C3=C(C)[C@@H](OC(=O)[C@H](O)[C@@H](NC(=O)OC(C)(C)C)c4ccccc4)C[C@@](O)([C@@H](OC(=O)c4ccccc4)[C@H]21)C3(C)C [Docetaxel] + NC(=O)Nc1cc(-c2cccc(F)c2)sc1C(=O)N[C@H]1CCCNC1 [AZD7762] (partner 0.2 µM)    0.939
CC(=O)O[C@@]12CO[C@@H]1C[C@H](O)[C@@]1(C)C(=O)[C@H](O)C3=C(C)[C@@H](OC(=O)[C@H](O)[C@@H](NC(=O)OC(C)(C)C)c4ccccc4)C[C@@](O)([C@@H](OC(=O)c4ccccc4)[C@H]21)C3(C)C [Docetaxel] + Cc1nc(Nc2ncc(C(=O)Nc3c(C)cccc3Cl)s2)cc(N2CCN(CCO)CC2)n1 [Dasatinib] (partner 0.075 µM)    0.822
CC(=O)O[C@@]12CO[C@@H]1C[C@H](O)[C@@]1(C)C(=O)[C@H](O)C3=C(C)[C@@H](OC(=O)[C@H](O)[C@@H](NC(=O)OC(C)(C)C)c4ccccc4)C[C@@](O)([C@@H](OC(=O)c4ccccc4)[C@H]21)C3(C)C [Docetaxel] + C[C@@H](Oc1cc(-c2cnn(C3CCNCC3)c2)cnc1N)c1c(Cl)ccc(F)c1Cl [Crizotinib] (partner 1 µM)    0.241

Sample CC(=O)O[C@@]12CO[C@@H]1C[C@H](O)[C@@]1(C)C(=O)[C@H](O)C3=C(C)[C@@H](OC(=O)[C@H](O)[C@@H](NC(=O)OC(C)(C)C)c4ccccc4)C[C@@](O)([C@@H](OC(=O)c4ccccc4)[C@H]21)C3(C)C [Docetaxel] + Nc1nc2[nH]cc(CCc3ccc(C(=O)N[C@@H](CCC(=O)O)C(=O)O)cc3)c2c(=O)[nH]1 [Pemetrexed] (partner 0.2 µM) ; relative viability observed: 0.185

# relative viability of CC(=O)O[C@@]12CO[C@@H]1C[C@H](O)[C@@]1(C)C(=O)[C@H](O)C3=C(C)[C@@H](OC(=O)[C@H](O)[C@@H](NC(=O)OC(C)(C)C)c4ccccc4)C[C@@](O)([C@@H](OC(=O)c4ccccc4)[C@H]21)C3(C)C [Docetaxel] + C[C@]1(O)C[C@@H](c2nc(-c3ccc4ccc(-c5ccccc5)nc4c3)c3c(N)nccn32)C1 [Linsitinib] (partner 1 µM) = 1

Please fill in: relative viability reported for CC(=O)O[C@@]12CO[C@@H]1C[C@H](O)[C@@]1(C)C(=O)[C@H](O)C3=C(C)[C@@H](OC(=O)[C@H](O)[C@@H](NC(=O)OC(C)(C)C)c4ccccc4)C[C@@](O)([C@@H](OC(=O)c4ccccc4)[C@H]21)C3(C)C [Docetaxel] + Cc1nc(NC(=O)N2CCC[C@H]2C(N)=O)sc1-c1ccnc(C(C)(C)C(F)(F)F)c1 [Alpelisib] (partner 2 µM) = 0.719

GET /value?item= CC(=O)O[C@@]12CO[C@@H]1C[C@H](O)[C@@]1(C)C(=O)[C@H](O)C3=C(C)[C@@H](OC(=O)[C@H](O)[C@@H](NC(=O)OC(C)(C)C)c4ccccc4)C[C@@](O)([C@@H](OC(=O)c4ccccc4)[C@H]21)C3(C)C [Docetaxel] + CS(=O)(=O)N1CCN(Cc2cc3nc(-c4cccc5[nH]ncc45)nc(N4CCOCC4)c3s2)CC1 [Pictilisib] (partner 1 µM) &field=relative viability returns 0.567

Record CC(=O)O[C@@]12CO[C@@H]1C[C@H](O)[C@@]1(C)C(=O)[C@H](O)C3=C(C)[C@@H](OC(=O)[C@H](O)[C@@H](NC(=O)OC(C)(C)C)c4ccccc4)C[C@@](O)([C@@H](OC(=O)c4ccccc4)[C@H]21)C3(C)C [Docetaxel] + CC(=O)c1c(C)c2cnc(Nc3ccc(N4CCNCC4)cn3)nc2n(C2CCCC2)c1=O [Palbociclib] (partner 0.5 µM) . Reported relative viability: 0.184

---

# Test system: COR-L23
# assay_overview: relative viability (nuclei count vs DMSO), 5 days (fraction); higher = more cells survive
# applied_conditions: first compound 50 µM
Let's look at some molecules and their measured relative viability.

O=C(O)CCCCC(CCSCc1ccccc1)SCc1ccccc1 (stereo unspecified) [CPI-613] + O=C(c1cc(Cc2n[nH]c(=O)c3ccccc23)ccc1F)N1CCN(C(=O)C2CC2)CC1 [Olaparib] (partner 8 µM)    0.389
O=C(O)CCCCC(CCSCc1ccccc1)SCc1ccccc1 (stereo unspecified) [CPI-613] + Cc1cc(Nc2cc(N3CCN(C)CC3)nc(Sc3ccc(NC(=O)C4CC4)cc3)n2)n[nH]1 [Tozasertib] (partner 0.1 µM)    0.192
O=C(O)CCCCC(CCSCc1ccccc1)SCc1ccccc1 (stereo unspecified) [CPI-613] + Cc1nc(NC(=O)N2CCC[C@H]2C(N)=O)sc1-c1ccnc(C(C)(C)C(F)(F)F)c1 [Alpelisib] (partner 2 µM)    0.852

Form field relative viability, entry O=C(O)CCCCC(CCSCc1ccccc1)SCc1ccccc1 (stereo unspecified) [CPI-613] + Cc1nc(Nc2ncc(C(=O)Nc3c(C)cccc3Cl)s2)cc(N2CCN(CCO)CC2)n1 [Dasatinib] (partner 0.075 µM) : 0.485

According to the records, this molecule O=C(O)CCCCC(CCSCc1ccccc1)SCc1ccccc1 (stereo unspecified) [CPI-613] + CC(=O)c1c(C)c2cnc(Nc3ccc(N4CCNCC4)cn3)nc2n(C2CCCC2)c1=O [Palbociclib] (partner 0.5 µM) displays relative viability of 0.324

The reported value for O=C(O)CCCCC(CCSCc1ccccc1)SCc1ccccc1 (stereo unspecified) [CPI-613] + CC(=O)Nc1cccc(-n2c(=O)n(C3CC3)c(=O)c3c(Nc4ccc(I)cc4F)n(C)c(=O)c(C)c32)c1 [Trametinib] (partner 0.02 µM) in terms of relative viability is 0.63

// data source = the supplement of paper PMC10307832
